Readings of inhibition for the listed compounds
- TESTED_ON: Muscarinic acetylcholine receptor M4 (Homo sapiens)
- ASSAY_DETAILS: human M4 muscarinic receptor antagonists, primary screen, CHO cells, Fluo-8 calcium fluorescence (AID 624125);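 further: 0% = acetylcholine EC80 with DMSO and 100% = DMSO without agonist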
- CONDITION_CONTEXT: CHO-hM4 cells, ACh EC80, Fluo-8 calcium fluorescence; at 3 µM; stronger effect = higher value
Out of some 360,000 compounds screened, about 2,600 (0.72%) were called active. The full list was thinned out, with actives kept by preference.
Kindly answer with a numeric value in %, unit omitted.

Worked cases, inhibition given:
Cc1sc2nc(CSCC(=O)Nc3c(Cl)cccc3Cl)[nH]c(=O)c2c1C | -1.67
CN(Cc1cccnc1)C(=O)c1cc(COc2ccc3ncccc3c2)on1 | 44.2
Cc1cccc(C)c1Nc1nnc(SCC(=O)NCCCN2CCCC2=O)s1 | -0.57
Cc1cc(CN(C)C(=O)c2cc(COc3ccc(C)c(C)c3)on2)n[nH]1 | -2.16

inhibition measured on Cc1cccc(NS(=O)(=O)c2ccc(C)c(C(=O)NCc3cccnc3)c2)c1 = -6.05

inhibition measured on NS(=O)(=O)c1ccc(CCNC(=O)c2ccc([N+](=O)[O-])cc2[N+](=O)[O-])cc1 = 5.77

inhibition measured on COc1ccc(C(=O)OCC(=O)NCCCc2ccccc2)cc1OC = 2.28

inhibition measured on O=C(Cc1ccc(Cl)cc1)NC(=S)Nc1ccccc1O = 59

inhibition measured on Cc1ccc(S(=O)(=O)N2CCCC2C(=O)OCc2nc3sc(C)c(C)c3c(=O)[nH]2)cc1 (stereo not drawn) = -8.5

inhibition measured on Cc1cccc(NC(=O)c2nc[nH]c2C(=O)NCC(=O)OCc2ccccc2)c1 = 29.3

inhibition measured on Fc1ccccc1CNC(=S)Nc1ccc(Cl)cc1 = 4.18

inhibition measured on COc1ccc(C(=O)O)cc1S(=O)(=O)NCc1cccnc1 = -5.56

inhibition measured on CC1(C(=O)NS(=O)(=O)c2ccccc2Cl)CCN1C(=O)c1cccc(F)c1 (stereo not drawn) = 3.33

inhibition measured on CN1C(=O)CC(N2CCN(c3ccccn3)CC2)C1=O (stereo not drawn) = 2.5

inhibition measured on Nc1nnc(SCC(=O)Nc2ccc3nc(SCC(=O)Nc4ccccc4)sc3c2)s1 = 40.5

inhibition measured on CC(C)(C)Nc1c(-c2cccs2)nc2ccccn12 = 6.54

inhibition measured on Cc1ccc(S(=O)(=O)N(Cc2ccc(Cl)cc2)c2ccccc2C(=O)NCc2cccnc2)cc1 = 2.37

inhibition measured on CN(CCO)C(=O)c1nc[nH]c1C(=O)N(C)Cc1ccccc1 = -23.3

inhibition measured on Cc1cccc(NC(=O)c2nc(S(=O)(=O)Cc3ccccc3)ncc2Cl)c1 = 51.3
